Molecular target: human vasopressin V1a receptor (Homo sapiens)
Sequence (P37288 whole entry): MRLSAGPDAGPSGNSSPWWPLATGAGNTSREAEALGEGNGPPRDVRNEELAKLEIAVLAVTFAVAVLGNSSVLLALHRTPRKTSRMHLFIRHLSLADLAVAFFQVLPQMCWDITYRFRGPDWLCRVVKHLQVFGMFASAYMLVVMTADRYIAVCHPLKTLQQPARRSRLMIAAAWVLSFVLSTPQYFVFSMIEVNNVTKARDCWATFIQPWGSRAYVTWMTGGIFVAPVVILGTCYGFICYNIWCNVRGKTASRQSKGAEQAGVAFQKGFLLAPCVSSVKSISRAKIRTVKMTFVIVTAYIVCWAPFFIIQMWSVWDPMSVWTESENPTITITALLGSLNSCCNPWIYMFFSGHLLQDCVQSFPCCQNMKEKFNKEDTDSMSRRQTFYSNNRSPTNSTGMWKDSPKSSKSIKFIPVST
Assay: Vasopressin V1a receptor binding assay (125I-AVP displacement, CHO-K1 membranes)
Conditions: selectivity quotient, human V1a vs human V1b
reported metric: Ki(h-V1a)/Ki(h-V1b)*

Example cases with answers are listed next.
INSERT INTO results (compound, observed) VALUES
  ('CCOc1ncccc1C1(NC(=O)c2ccc(N3CCN(CC)CC3)cc2)C(=O)N(S(=O)(=O)c2ccc(OC)cc2OC)c2ccc(C#N)cc21 (stereo not drawn) [Example 7]', '+++ (>75)'),
  ('CCOc1ncccc1C1(NCc2ccc(N3CCNCC3)cc2)C(=O)N(S(=O)(=O)c2ccc(OC)cc2OC)c2ccc(C#N)cc21 (stereo not drawn) [Example 29]', '++ (25-75)'),
  ('CCOc1ncccc1C1(NCc2cccc(N3CCN(C)CC3)c2)C(=O)N(S(=O)(=O)c2ccccc2OC)c2ccc(I)cc21 (stereo not drawn) [Example 41]', '++ (25-75)'),
  ('CCOc1ncccc1C1(Nc2ccc(CN3CCN(C)CC3)cc2)C(=O)N(S(=O)(=O)c2ccc(OC)cc2)c2ccc(C#N)cc21 (stereo not drawn) [Example 75]', '++ (25-75)');

Okay, now this compound:
QUERY: So what's the measured Ki(h-V1a)/Ki(h-V1b)* for this one? CCOc1ncccc1C1(NC(=O)c2ccc(N3CCN(C)CC3)cc2)C(=O)N(S(=O)(=O)c2ccc(OC)cc2)c2ccc(C#N)cc21 (stereo not drawn) [Example 4]
RESULT: +++ (>75)

###

Target: human vasopressin V1b receptor (Homo sapiens)
Sequence (P47901 whole entry): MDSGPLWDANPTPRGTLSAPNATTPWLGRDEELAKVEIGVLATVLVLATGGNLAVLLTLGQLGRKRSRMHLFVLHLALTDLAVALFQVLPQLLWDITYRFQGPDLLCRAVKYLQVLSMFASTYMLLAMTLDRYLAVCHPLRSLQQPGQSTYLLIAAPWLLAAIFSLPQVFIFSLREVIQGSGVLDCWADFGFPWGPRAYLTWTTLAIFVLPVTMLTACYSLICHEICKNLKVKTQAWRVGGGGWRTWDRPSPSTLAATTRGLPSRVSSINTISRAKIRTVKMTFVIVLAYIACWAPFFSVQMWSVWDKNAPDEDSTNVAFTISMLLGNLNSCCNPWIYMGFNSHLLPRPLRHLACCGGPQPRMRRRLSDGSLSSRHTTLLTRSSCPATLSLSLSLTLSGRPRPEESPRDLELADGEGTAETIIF
For each entry below, report its Ki value.

Example cases with answers are listed next.
INSERT INTO assay_data (compound, observed) VALUES
  ('CCOc1ncccc1C1(NCc2ccc(N3CCN(CC)CC3)cc2)C(=O)N(S(=O)(=O)c2ccc(OC)cc2)c2cc(F)c(C#N)cc21 (stereo not drawn)', '1 to 10 nM'),
  ('CCOc1ncccc1C1(NCc2ccc(N3CCN(C)CC3)cc2)C(=O)N(S(=O)(=O)c2ccc(OC)cc2)c2cc(Cl)c(F)cc21 (stereo not drawn)', '10 to 100 nM'),
  ('CCOc1ncccc1C1(NCc2ccc(N3CCN(C)CC3)cc2)C(=O)N(S(=O)(=O)c2ccc(C#N)cc2)c2ccc(C#N)cc21 (stereo not drawn)', '10 to 100 nM'),
  ('CCOc1ncccc1C1(Nc2ccc(CN3CCN(C)CC3)cc2)C(=O)N(S(=O)(=O)c2ccc(OC)cc2OC)c2ccc(C#N)cc21 (stereo not drawn)', '1 to 10 nM'),
  ('CCOc1ncccc1C1(Nc2ccc(N3CCN(C)CC3)cc2)C(=O)N(S(=O)(=O)c2ccc(OC)cc2)c2cc(F)c(C#N)cc21 (stereo not drawn)', '1 to 10 nM');

Okay, now this compound:
QUERY: So what's the measured Ki for this one? CCOc1ncccc1C1(Nc2ccc(N3CCN(CC)CC3)cc2)C(=O)N(S(=O)(=O)c2ccc(OC)cc2)c2ccc(C#N)cc21 (stereo not drawn)
RESULT: 10 to 100 nM

###

Target: human vasopressin V1a receptor (Homo sapiens)
Assay: Vasopressin V1a receptor binding assay (125I-AVP displacement, CHO-K1 membranes)
Conditions: selectivity quotient, human V1a vs human V1b
reported metric: Ki(h-V1a)/Ki(h-V1b)*

Example cases with answers are listed next.
INSERT INTO assay_data (molecule, reported_metric, observed) VALUES
  ('CCOc1ncccc1C1(Nc2ccc(C(=O)N3CCN(C)CC3)cc2)C(=O)N(S(=O)(=O)c2ccc(OC)cc2OC)c2ccc(C#N)cc21 (stereo not shown)', 'Ki(h-V1a)/Ki(h-V1b)*', '+++ (>75)'),
  ('CCOc1ncccc1C1(NCc2ccc(N3CCN(C)CC3)cc2)C(=O)N(S(=O)(=O)c2ccccc2OC)c2ccc(C#N)cc21 (stereo not shown)', 'Ki(h-V1a)/Ki(h-V1b)*', '+++ (>75)'),
  ('CCOc1ncccc1C1(Nc2ccc(N3CCN(C)CC3)cc2)C(=O)N(S(=O)(=O)c2ccc(OC)cc2)c2cc(F)c(C#N)cc21 (stereo not shown)', 'Ki(h-V1a)/Ki(h-V1b)*', '++ (25-75)'),
  ('COc1ccc(S(=O)(=O)N2C(=O)C(NCc3ccc(N4CCN(C)CC4)cc3)(c3cccnc3OCC(F)(F)F)c3cc(C#N)ccc32)cc1 (stereo not shown)', 'Ki(h-V1a)/Ki(h-V1b)*', '++ (25-75)'),
  ('CCOc1ncccc1C1(NCc2ccc(N3CCNCC3)cc2)C(=O)N(S(=O)(=O)c2ccc(OC)cc2)c2cc(F)c(C#N)cc21 (stereo not shown)', 'Ki(h-V1a)/Ki(h-V1b)*', '+ (10-<25)');

Batch request: Ki(h-V1a)/Ki(h-V1b)* per item, same order as input.
1. CCOc1ncccc1C1(Nc2cccc(N3CCN(C)CC3)c2)C(=O)N(S(=O)(=O)c2ccc(OC)cc2OC)c2ccc(I)cc21 (stereo not shown)
2. CCOc1ncccc1C1(NCc2ccc(N3CCN(C)CC3)cc2)C(=O)N(S(=O)(=O)c2ccc(OC)cc2)c2ccc(C#N)cc21 (stereo not shown)
3. CCOc1ncccc1C1(NCc2ccc(N3CCN(C)CC3)cc2)C(=O)N(S(=O)(=O)c2ccc(OC)cc2)c2cc(F)c(F)cc21 (stereo not shown)

RESULT:
["++ (25-75)", "+++ (>75)", "+ (10-<25)"]
